Hi there, I'd appreciate the recorded IC50 for every entry that follows.
targetOfAssay: bovine trypsin (Bos taurus)
Construct: purchased Sigma
Sequence (P00760 24-246): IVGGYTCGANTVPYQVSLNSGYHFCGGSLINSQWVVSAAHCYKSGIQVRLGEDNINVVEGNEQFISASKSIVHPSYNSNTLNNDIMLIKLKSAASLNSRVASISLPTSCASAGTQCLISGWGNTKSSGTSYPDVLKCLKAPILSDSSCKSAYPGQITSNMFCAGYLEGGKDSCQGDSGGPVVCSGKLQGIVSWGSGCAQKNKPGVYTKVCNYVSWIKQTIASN
protocolText: Determination of anti-trypsin activity (chromogenic substrate S-2222)
Assay type: biochemical
studyConditions: bovine trypsin 0.25 μg-protein/ml, 0.4 mM S-2222, tris-HCl buffer pH 8.4, room temperature, 5 min, absorbance 405 nm
Where a name gives a salt, the structure may show the parent alone.
Provide the reading as a plain figure in nM.

Fill in the blank: the reported IC50 of CC(=N)N1CCC(Oc2ccc(N(C/C=C/c3cccc(C(=N)N)c3)S(=O)(=O)CC(=O)O)cc2Cl)CC1 [Example 9, Dihydrochloride] is ____.
520

Fill in the blank: the reported IC50 of CC(=N)N1CCC(Oc2ccc(N(C/C=C/c3cccc(C(=N)N)c3)S(=O)(=O)CC(=O)O)cc2F)CC1 [Example 11, Dihydrochloride] is ____.
840

====

targetOfAssay: human factor Xa (Homo sapiens, UniProt P00742)
Construct: purchased Cosmo Bio Co., Ltd, Tokyo, Japan
Sequence (P00742 235-488 limits assumed): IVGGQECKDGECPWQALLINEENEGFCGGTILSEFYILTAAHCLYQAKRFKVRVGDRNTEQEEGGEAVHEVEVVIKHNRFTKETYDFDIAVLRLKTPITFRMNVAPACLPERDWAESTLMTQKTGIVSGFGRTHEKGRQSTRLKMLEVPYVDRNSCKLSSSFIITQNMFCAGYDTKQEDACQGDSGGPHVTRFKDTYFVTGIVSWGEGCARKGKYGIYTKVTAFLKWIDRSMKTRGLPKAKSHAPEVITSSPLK
Sequence (P00742 41-179 partner limits assumed): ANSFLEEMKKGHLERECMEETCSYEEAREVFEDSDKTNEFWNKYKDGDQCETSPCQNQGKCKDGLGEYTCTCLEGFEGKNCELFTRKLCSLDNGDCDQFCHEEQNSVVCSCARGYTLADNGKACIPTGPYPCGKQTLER
protocolText: Determination of anti-factor Xa activity (chromogenic substrate S-2222)
Assay type: biochemical
studyConditions: 0.25 unit/ml human factor Xa, 0.4 mM S-2222, tris-HCl buffer pH 8.4, 5 min at room temperature, absorbance 405 nm; read-out: Factor Xa inhibitory activity [IC50 (nM)]
Excerpt: […]
Structures can show the parent of a compound that is named as a salt.
measurementType: IC50 (nM)
Provide the reading as a plain figure in nM.

Fill in the blank: the reported IC50 of CC(=N)N1CCC(Oc2ccc(N(C/C=C/c3cccc(C(=N)N)c3)S(=O)(=O)CC(=O)O)cc2C)CC1 [Example 55, Dihydrochloride] is ____.
5

Fill in the blank: the reported IC50 of CCOC(=O)CS(=O)(=O)N(C/C=C/c1cccc(C(=N)N)c1)c1ccc(OC2CCN(C(C)=N)CC2)c(Br)c1 [Example 31, Dihydrochloride] is ____.
10

Fill in the blank: the reported IC50 of CC(=N)N1CCC(Oc2ccc(N(C/C=C/c3cccc(C(=N)N)c3)C(C)C)cc2)CC1 [Example 22, Trihydrochloride] is ____.
8.3

Fill in the blank: the reported IC50 of CC(=N)N1CCC(Oc2ccc(N(C/C=C/c3cccc(C(=N)N)c3)CCO)cc2)CC1 [Example 28, Trihydrochloride] is ____.
9

Fill in the blank: the reported IC50 of CCOC(=O)CS(=O)(=O)N(C/C(F)=C/c1cccc(C(=N)N)c1)c1ccc(OC2CCN(C(C)=N)CC2)cc1 [Example 56, Dihydrochloride] is ____.
10

Fill in the blank: the reported IC50 of CCOC(=O)CS(=O)(=O)N(C/C=C/c1cccc(C(=N)N)c1)c1ccc(OC2CCN(C(C)=N)CC2)cc1 [Example 3, Dihydrochloride] is ____.
8.6

Fill in the blank: the reported IC50 of CC(=N)N1CCC(Oc2ccc(N(C/C=C/c3cccc(C(=N)N)c3)S(=O)(=O)CC(=O)O)cc2Cl)CC1 [Example 9, Dihydrochloride] is ____.
7.4

Fill in the blank: the reported IC50 of CNC(=O)c1cc(N(C/C=C/c2cccc(C(=N)N)c2)S(=O)(=O)CC(=O)O)ccc1OC1CCN(C(C)=N)CC1 [Example 38, Dihydrochloride] is ____.
8.7

Fill in the blank: the reported IC50 of CCOC(=O)CN(C/C=C/c1cccc(C(=N)N)c1)c1ccc(OC2CCN(C(C)=N)CC2)cc1 [Example 23, Trihydrochloride] is ____.
8.3

Fill in the blank: the reported IC50 of CCOC(=O)CS(=O)(=O)N(C/C=C/c1cccc(C(=N)N)c1)c1cc(F)c(OC2CCN(C(C)=N)CC2)c(F)c1 [Example 46, Dihydrochloride] is ____.
6.8

Fill in the blank: the reported IC50 of CC(=N)N1CCC(Oc2ccc(N(CCOc3cccc(C(=N)N)c3)S(=O)(=O)CC(=O)O)cc2)CC1 [Compound A, dihydrochloride salt, reference compound] is ____.
130

Fill in the blank: the reported IC50 of CC(=N)N1CCC(Oc2ccc(N(C/C=C/c3cccc(C(=N)N)c3)S(=O)(=O)CC(=O)O)cc2C(N)=O)CC1 [Example 36, Dihydrochloride] is ____.
7.1

====

targetOfAssay: human factor Xa (Homo sapiens)
Construct: purchased Cosmo Bio Co., Ltd, Tokyo, Japan
protocolText: Determination of anti-factor Xa activity (chromogenic substrate S-2222)
Type: biochemical
studyConditions: 0.25 unit/ml human factor Xa, 0.4 mM S-2222, tris-HCl buffer pH 8.4, 5 min at room temperature, absorbance 405 nm; read-out: Factor Xa inhibitory activity [IC50 (nM)]
Where a name gives a salt, the structure may show the parent alone.
We label by threshold. Values of IC50 strictly beneath 6 nM are True. Values of 6 nM and up are False.

In plain terms, does CC(=N)N1CCC(Oc2ccc(N(C/C(F)=C/c3cccc(C(=N)N)c3)S(=O)(=O)CC(=O)O)cc2)CC1 [Example 57, Dihydrochloride] come in under 6 nM for IC50?
False

In plain terms, does CC(=N)N1CCC(Oc2ccc(N(C/C=C/c3cccc(C(=N)N)c3)S(=O)(=O)CC(=O)O)cc2F)CC1 [Example 11, Dihydrochloride] come in under 6 nM for IC50?
False

In plain terms, does CC(=N)N1CCC(Oc2ccc(N(C/C=C/c3cccc(C(=N)N)c3)S(=O)(=O)CC(=O)O)cc2)CC1 [Example 4, Dihydrochloride] come in under 6 nM for IC50?
False

In plain terms, does CCOC(=O)CS(=O)(=O)N(C/C=C/c1cccc(C(=N)N)c1)c1ccc(OC2CCN(C(C)=N)CC2)c(Cl)c1 [Example 8, Dihydrochloride] come in under 6 nM for IC50?
True

In plain terms, does CCOC(=O)CS(=O)(=O)N(C/C=C/c1cccc(C(=N)N)c1)c1ccc(OC2CCN(C(C)=N)CC2)c(F)c1 [Example 10, Dihydrochloride] come in under 6 nM for IC50?
True

In plain terms, does CC(=N)N1CCC(Oc2ccc(N(C/C=C/c3cccc(C(=N)N)c3)S(=O)(=O)CC(=O)O)cc2C(F)(F)F)CC1 [Example 54, Dihydrochloride] come in under 6 nM for IC50?
True

In plain terms, does CC(=N)N1CCC(Oc2c(F)cc(N(C/C=C/c3cccc(C(=N)N)c3)S(=O)(=O)CC(=O)O)cc2F)CC1 [Example 47, Dihydrochloride] come in under 6 nM for IC50?
True

In plain terms, does CC(=N)N1CCC(Oc2ccc(N(C/C=C/c3cccc(C(=N)N)c3)S(=O)(=O)CC(=O)O)cc2C(C)C)CC1 [Example 34, Dihydrochloride] come in under 6 nM for IC50?
False

In plain terms, does CCOC(=O)CS(=O)(=O)N(C/C=C/c1cccc(C(=N)N)c1)c1ccc(OC2CCN(C(C)=N)CC2)c(C(=O)OCC)c1 [Example 29, Dihydrochloride] come in under 6 nM for IC50?
False

In plain terms, does CCOC(=O)CS(=O)(=O)N(C/C=C/c1cc(C(=N)N)ccc1O)c1ccc(OC2CCN(C(C)=N)CC2)c(Cl)c1 [Example 41, Dihydrochloride] come in under 6 nM for IC50?
False

In plain terms, does CC(=N)N1CCC(Oc2c(Cl)cc(N(C/C=C/c3cccc(C(=N)N)c3)S(=O)(=O)CC(=O)O)cc2Cl)CC1 [Example 49, Dihydrochloride] come in under 6 nM for IC50?
False
